# Target System: UDP-glucose 4-epimerase (Homo sapiens, UniProt Q14376)
# Sequence (Q14376 whole entry): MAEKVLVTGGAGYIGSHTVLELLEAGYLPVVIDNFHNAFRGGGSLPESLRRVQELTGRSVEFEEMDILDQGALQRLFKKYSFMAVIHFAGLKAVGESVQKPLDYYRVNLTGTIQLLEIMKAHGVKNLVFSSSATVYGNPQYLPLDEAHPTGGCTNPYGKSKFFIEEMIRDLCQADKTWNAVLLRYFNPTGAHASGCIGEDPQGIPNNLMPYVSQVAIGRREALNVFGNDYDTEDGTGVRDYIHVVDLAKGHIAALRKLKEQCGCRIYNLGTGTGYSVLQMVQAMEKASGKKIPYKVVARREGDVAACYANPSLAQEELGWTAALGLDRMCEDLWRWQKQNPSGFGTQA
Assay Endpoint: IC50

| Molecule | IC50 |
| --- | --- |
| O=c1c2ccccc2[se]n1-c1ccccc1 | 0.014 µM |

Please turn your attention to the following entry.
Which IC50 value belongs to C=C(CC)C(=O)c1ccc(OCC(=O)O)c(Cl)c1Cl ?
14 µM

====

# Test system: CHO-K1
# Assay Explanation: Cytotoxicity against CHO-K1 cells by Alamar blue assay
# Format: cell-based
# Cond: Cricetulus griseus
Here, each record is paired with measured pEC50 data.
pEC50 here is simply -log10 of the concentration when that concentration is written in mol/L.

# count of solved cases: 4
| Compound | Target System | pEC50 |
| --- | --- | --- |
| C=C(CC)C(=O)c1ccc(OCC(=O)O)c(Cl)c1Cl [ETHACRYNIC ACID] | CHO-K1 | 4.25 |
| O=C(NCCSSCCNC(=O)/C(Cc1ccc(O)c(Br)c1)=N/O)/C(Cc1ccc(O)c(Br)c1)=N/O [PSAMMAPLIN A] | CHO-K1 | 6.05 |
| CC/C(=C(/CC)c1ccc(O)cc1)c1ccc(O)cc1 [DIETHYLSTILBESTROL] | CHO-K1 | 5.07 |
| Clc1cc(Cl)c(OCC#CI)cc1Cl [HALOPROGIN] | CHO-K1 | 6.22 |

Then this compound:
// lookup pEC50 for O=c1c2ccccc2[se]n1-c1ccccc1 [EBSELEN]
5.21
